Origin of the recorded values: PubChem BioAssay AID422

Target: 14-3-3 protein gamma (Homo sapiens)
Assay: modulators of 14-3-3 gamma protein binding, primary screen, biochemical, fluorescence polarization (AID 422)
Conditions: FP, 14-3-3gamma / TMR-pS259-Raf peptide binding; at 40 µM
Among all 160,000 compounds or so, about 310 (0.19%) were called active. No stated cut-off is given here; in the data, active means inhibition above about 30%; inactive means the rest. Only a selection was taken, and actives are over-represented in it overall.
Outcomes you can answer with include only these: YES = active, NO = inactive

CC(=O)Nc1ccccc1Sc1ccc2c3c(cccc13)C(=O)N(c1ccc(C)cc1)C2=O :: NO
Cc1[nH]c2ccccc2c1C(=O)CSc1nc2ccccc2s1 :: NO
Cc1ccc(C2OC3(C(=O)c4ccccc4C3=O)C3C(=O)N(c4ccc(Br)cc4)C(=O)C23)cc1 (centres undefined) :: NO

I would be grateful if you could indicate the recorded call for O=C(Cc1ccc(Cl)cc1)Nc1cccc(-c2nc3ccccc3o2)c1 .
NO

I would be grateful if you could indicate the recorded call for O=C(Nc1nccs1)c1cc2cc(Cl)ccc2oc1=Nc1ccc(Br)cc1 .
NO

I would be grateful if you could indicate the recorded call for CCc1sc(-c2cc3cccc(OC)c3oc2=O)nc1-c1ccc(C)cc1 .
NO

I would be grateful if you could indicate the recorded call for CC1=C(C(=O)OCC2CCCO2)C(c2ccccc2Cl)C2=C(CCCC2=O)N1 (centres undefined) .
NO
